# targetSystem: Recombinant human ENPP3 protein (Homo sapiens (Human))
# assayMethodText: ENPP3 cGAMP Biochemical Assay
# settings: 70.5 nM ENPP3, 120 μM 2′3′-cGAMP substrate, TR-FRET
assayMetric: IC50

Example results:
1) CCn1ncc2c(NCC3CCN(S(C)(=N)=O)CC3)ccnc21 (stereo not drawn); ≥ 1000 nM
2) CCn1ncc2c(NCc3ccc([S@@](N)(=O)=NC)cc3)ccnc21; ≥ 1000 nM

Report IC50 for CS(=N)(=O)c1ccc(CNc2ccnc3c2c(Cl)nn3CC#N)cc1 (stereo not drawn) please.
10 to 100 nM

###

# targetSystem: Recombinant human ENPP1 protein (Homo sapiens (Human))
# Sequence (P22413 whole entry): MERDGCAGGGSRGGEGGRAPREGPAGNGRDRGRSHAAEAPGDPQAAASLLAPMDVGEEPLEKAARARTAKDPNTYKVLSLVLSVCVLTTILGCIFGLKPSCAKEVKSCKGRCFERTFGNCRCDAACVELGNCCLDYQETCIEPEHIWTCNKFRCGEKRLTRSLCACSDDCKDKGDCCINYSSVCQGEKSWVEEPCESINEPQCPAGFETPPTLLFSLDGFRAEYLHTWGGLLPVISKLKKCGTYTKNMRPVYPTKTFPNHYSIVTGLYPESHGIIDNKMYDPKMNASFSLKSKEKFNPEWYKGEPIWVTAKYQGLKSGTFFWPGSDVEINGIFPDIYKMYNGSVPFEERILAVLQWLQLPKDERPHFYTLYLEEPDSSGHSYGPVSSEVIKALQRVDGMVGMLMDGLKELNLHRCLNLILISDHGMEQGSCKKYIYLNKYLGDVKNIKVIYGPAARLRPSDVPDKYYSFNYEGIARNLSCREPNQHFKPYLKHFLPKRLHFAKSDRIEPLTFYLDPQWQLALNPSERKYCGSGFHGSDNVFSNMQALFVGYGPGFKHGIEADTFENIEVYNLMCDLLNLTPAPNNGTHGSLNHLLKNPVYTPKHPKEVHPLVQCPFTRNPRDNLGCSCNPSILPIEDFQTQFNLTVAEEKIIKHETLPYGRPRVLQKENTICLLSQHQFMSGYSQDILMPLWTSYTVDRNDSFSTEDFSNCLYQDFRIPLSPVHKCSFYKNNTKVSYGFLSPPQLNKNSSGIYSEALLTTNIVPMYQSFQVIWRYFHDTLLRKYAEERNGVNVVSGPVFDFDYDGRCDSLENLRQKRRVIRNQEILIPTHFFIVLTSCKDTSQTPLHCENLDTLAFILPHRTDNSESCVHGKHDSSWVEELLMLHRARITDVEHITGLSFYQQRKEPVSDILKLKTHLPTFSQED
# assayMethodText: ENPP1 cGAMP Biochemical Assay
# settings: 0.5 nM ENPP1, 1000 nM 2′3′-cGAMP substrate, TR-FRET
Listing: IC50 of selected compounds

Example results:
1) CCn1nc(Cl)c2c(NCc3ccc([S@](N)(=O)=NC)cc3)ccnc21 [Compound 12D]; 0.01 to 0.1 µM
2) C#CCn1nc(Cl)c2c(N(C)Cc3ccc(S(N)(=O)=NC)cc3)ccnc21 (stereo not drawn) [Compound 3C]; < 0.01 µM
3) CS(=N)(=O)c1ccc(COc2ccnc3c2c(Cl)nn3CC#N)cc1 (stereo not drawn) [Compound 8A]; < 0.01 µM
4) CCn1nc(Cl)c2c(Nc3ccc(S(N)(=O)=NCC4CC4)cc3)ccnc21 (stereo not drawn) [Compound 5F]; < 0.01 µM
5) CCn1ncc2c(NCc3ccc(S(=N)(N)=O)cc3)cc(-c3ncc[nH]3)nc21 (stereo not drawn) [Compound 2C]; 0.1 to 1 µM
6) CCn1ncc2c(NCc3ccc(S(=N)(N)=O)cc3)ncnc21 (stereo not drawn) [Compound 2D]; 0.01 to 0.1 µM
7) CCn1ncc2c(NCc3ccc(S(N)(=O)=NC#N)cc3)ccnc21 (stereo not drawn) [Compound 3D]; < 0.01 µM
8) N#CCn1nc(Cl)c2c(NCc3ccc(S(N)(=O)=NC#N)cc3)ccnc21 (stereo not drawn) [Compound 12H]; < 0.01 µM

Report IC50 for CN=[S@@](N)(=O)N1CCC(CNc2ccnc3c2c(Cl)nn3CC#N)CC1 [Compound 15H] please.
< 0.01 µM

Report IC50 for N#CCn1nc(Cl)c2c(NCC3CCN(S(N)(=O)=NC#N)CC3)ccnc21 (stereo not drawn) [Compound 15B] please.
< 0.01 µM

Report IC50 for CCn1ncc2c(NCc3ccc(S(C)(=N)=O)cc3)ccnc21 (stereo not drawn) [Compound 9E] please.
≥ 1 µM

Report IC50 for C#CCn1nc(Cl)c2c(NCc3ccc(S(=N)(=O)NC)cc3)ccnc21 (stereo in doubt) [Compound 10B] please.
< 0.01 µM

###

# targetSystem: Recombinant human ENPP3 protein (Homo sapiens (Human), UniProt O14638)
# Sequence (O14638 whole entry): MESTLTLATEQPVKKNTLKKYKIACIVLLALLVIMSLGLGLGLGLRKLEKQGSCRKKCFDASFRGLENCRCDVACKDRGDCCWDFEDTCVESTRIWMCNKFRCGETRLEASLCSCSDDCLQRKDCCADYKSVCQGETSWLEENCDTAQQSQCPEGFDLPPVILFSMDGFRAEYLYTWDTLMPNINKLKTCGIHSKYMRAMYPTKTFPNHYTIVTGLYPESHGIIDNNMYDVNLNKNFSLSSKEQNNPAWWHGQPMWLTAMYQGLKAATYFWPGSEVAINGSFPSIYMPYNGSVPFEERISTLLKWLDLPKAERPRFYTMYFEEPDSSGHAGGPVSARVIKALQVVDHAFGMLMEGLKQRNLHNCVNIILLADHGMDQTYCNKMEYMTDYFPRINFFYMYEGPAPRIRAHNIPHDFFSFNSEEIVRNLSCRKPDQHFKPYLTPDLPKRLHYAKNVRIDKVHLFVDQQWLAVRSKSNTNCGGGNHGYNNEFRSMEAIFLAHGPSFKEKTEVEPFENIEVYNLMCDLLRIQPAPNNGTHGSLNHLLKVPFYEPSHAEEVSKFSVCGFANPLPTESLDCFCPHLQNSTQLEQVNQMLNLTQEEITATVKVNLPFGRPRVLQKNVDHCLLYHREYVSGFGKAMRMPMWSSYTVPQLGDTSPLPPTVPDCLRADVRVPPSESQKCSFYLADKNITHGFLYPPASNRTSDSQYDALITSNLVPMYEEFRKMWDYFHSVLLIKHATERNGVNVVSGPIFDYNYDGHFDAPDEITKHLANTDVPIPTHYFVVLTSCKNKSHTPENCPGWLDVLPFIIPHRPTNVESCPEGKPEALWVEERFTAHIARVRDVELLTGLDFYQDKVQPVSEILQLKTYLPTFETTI
# assayMethodText: ENPP3 cGAMP Biochemical Assay
# settings: 70.5 nM ENPP3, 120 μM 2′3′-cGAMP substrate, TR-FRET
pIC50: −log10 of the molar value.
assayMetric: pIC50

1) CN=[S@](N)(=O)N1CCC(CNc2ccnc3c2c(Cl)nn3CC#N)CC1 [Compound 15G]; 6.00 to 7.00
2) N#CCn1nc(Cl)c2c(NCc3ccc(S(=N)(N)=O)cc3)ccnc21 (centres unmarked) [Compound 11B]; 6.00 to 7.00
3) CCn1nc(Cl)c2c(NCC3CCN([S@](=N)(=O)CCOC)CC3)ccnc21 [Compound 14D]; ≤ 6.00
4) CCn1nc(Cl)c2c(NCC3CCN([S@@](C)(=N)=O)CC3)ccnc21 [Compound 13G]; ≤ 6.00
5) CCn1nc(Cl)c2c(NCC3CCN(S(=N)(=O)CCC(=O)O)CC3)ccnc21 (centres unmarked) [Compound 14F]; 6.00 to 7.00
6) CCn1nc(Cl)c2c(NCc3ccc([S@](N)(=O)=NC)cc3)ccnc21 [Compound 12D]; ≤ 6.00
7) CCn1nc(Cl)c2c(NCc3ccc([S@](C)(=N)=O)cc3)ccnc21; 6.00 to 7.00
8) C#CCn1nc(Cl)c2c(NCc3ccc([S@@](C)(=N)=O)cc3)ccnc21; 7.00 to 8.00
9) CCn1ncc2c(OCc3ccc(S(N)(=O)=NC)cc3)ccnc21 (centres unmarked); ≤ 6.00
10) CCn1nc(Cl)c2c(NCc3ccc([S@@](N)(=O)=NC)cc3)ccnc21 [Compound 12C]; ≤ 6.00

Report pIC50 for CN=S(C)(=O)c1ccc(CNc2ccnc3c2c(Cl)nn3CC#N)cc1 (centres unmarked) [Compound 10D] please.
≤ 6.00
